Value source: PubChem BioAssay (NCI)

Measurement protocol: NCI Yeast Anticancer Drug Screen. Data for the sgs1 strain (AID 173);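 further: 0% = growth of vehicle-only control cultures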
Measurement parameters: S. cerevisiae sgs1 mutant, at 100.0 µM, stronger effect = higher value
Compounds without any hit were thinned out: in the full panel of roughly 79,000, 15% have a hit.
Assay endpoint: growth inhibition (%)

>  <Compound>
Cc1cc(C(C)(C)C)c(OCCCN2CCOCC2)c(C(C)(C)C)c1

>  <Assay endpoint>
growth inhibition

>  <Test value>
98

$$$$
>  <Compound>
CCOC1Oc2ccccc2-c2nc(N)ncc21 (stereo not given)

>  <Assay endpoint>
growth inhibition

>  <Test value>
-9

$$$$
>  <Compound>
O=C(CC(C(=O)O)N1CCOCC1)c1ccccc1 (stereo not given)

>  <Assay endpoint>
growth inhibition

>  <Test value>
80

$$$$
>  <Compound>
O=C(O)c1ccccc1/C=N/N=C1c2ccccc2-c2ccccc21

>  <Assay endpoint>
growth inhibition

>  <Test value>
3

$$$$
>  <Compound>
CC(O)=NC(Cc1ccc2ccccc2c1)C(O)=NC(Cc1ccc(Cl)cc1)C(O)=NC(Cc1c[nH]c2ccccc12)C(O)=NC(CO)C(O)=NC(Cc1ccc(O)cc1)C(O)=NC(CCCN=C(N)N)C(O)=NC(CC(C)C)C(O)=NC(CCCN=C(N)N)C(=O)N1CCCC1C(O)=NC(C)C(=N)O (stereo not given)

>  <Assay endpoint>
growth inhibition

>  <Test value>
44

$$$$
>  <Compound>
O=[N+]([O-])c1ccc2c(c1)/C(=N/N=C1c3ccccc3Cc3ccccc31)c1cc([N+](=O)[O-])cc([N+](=O)[O-])c1-2

>  <Assay endpoint>
growth inhibition

>  <Test value>
95

$$$$
>  <Compound>
Cc1ccc(Sc2ccccc2N)cc1

>  <Assay endpoint>
growth inhibition

>  <Test value>
98

$$$$
>  <Compound>
NCCNCCNc1ccc(NCCNCCN)c2c1C(=O)c1c(O)ccc(O)c1C2=O

>  <Assay endpoint>
growth inhibition

>  <Test value>
25

$$$$
>  <Compound>
COC1=C(OC)C(=O)C(Sc2ccc3ccccc3c2)=CC1=O

>  <Assay endpoint>
growth inhibition

>  <Test value>
93

$$$$
>  <Compound>
CCC1(OC(=O)CN2CCN(CCO)CC2)C(=O)OCc2c1cc1n(c2=O)Cc2cc3ccccc3nc2-1 (stereo not given)

>  <Assay endpoint>
growth inhibition

>  <Test value>
24

$$$$
>  <Compound>
N#CC(C#N)=NNc1ccc(S(=O)(=O)O)cc1

>  <Assay endpoint>
growth inhibition

>  <Test value>
11

$$$$
>  <Compound>
NC(N)=NS(=O)(=O)c1ccc(Nc2c3ccccc3nc3c(C(=O)NCCO)cccc23)cc1

>  <Assay endpoint>
growth inhibition

>  <Test value>
43

$$$$
>  <Compound>
CC(C)(C)CC(C)(C)c1cc(O)c(O)c(CN2CCCCC2)c1

>  <Assay endpoint>
growth inhibition

>  <Test value>
63

$$$$
>  <Compound>
CC(C)OC(=O)c1ccc(CCc2cc(O)c(Br)cc2O)cc1

>  <Assay endpoint>
growth inhibition

>  <Test value>
95

$$$$
>  <Compound>
O=P(NC1CCCCC1)(OCc1ccccc1)OCc1ccccc1

>  <Assay endpoint>
growth inhibition

>  <Test value>
17

$$$$
>  <Compound>
CCOC(=O)C(C(=O)OCC)=P(c1ccccc1)(c1ccccc1)c1ccccc1

>  <Assay endpoint>
growth inhibition

>  <Test value>
94

$$$$
>  <Compound>
O=C1C(Br)=C(c2ccccc2)O/C1=C/C(=O)c1ccc(Br)cc1

>  <Assay endpoint>
growth inhibition

>  <Test value>
94

$$$$
>  <Compound>
O=C1Nc2ccc(Br)cc2C1=Nc1ccc2c(c1)OCO2

>  <Assay endpoint>
growth inhibition

>  <Test value>
-27

$$$$
>  <Compound>
O=C1CC(=O)c2ccccc21

>  <Assay endpoint>
growth inhibition

>  <Test value>
57

$$$$
>  <Compound>
O=C1C(=O)c2ccccc2C(O)=C1C(C1=C(O)c2ccccc2C(=O)C1=O)c1ccc(Cl)cc1

>  <Assay endpoint>
growth inhibition

>  <Test value>
63

$$$$
